- experimental system: 15-LOX-1 (Homo sapiens, UniProt P16050)
- Sequence (P16050 1-662): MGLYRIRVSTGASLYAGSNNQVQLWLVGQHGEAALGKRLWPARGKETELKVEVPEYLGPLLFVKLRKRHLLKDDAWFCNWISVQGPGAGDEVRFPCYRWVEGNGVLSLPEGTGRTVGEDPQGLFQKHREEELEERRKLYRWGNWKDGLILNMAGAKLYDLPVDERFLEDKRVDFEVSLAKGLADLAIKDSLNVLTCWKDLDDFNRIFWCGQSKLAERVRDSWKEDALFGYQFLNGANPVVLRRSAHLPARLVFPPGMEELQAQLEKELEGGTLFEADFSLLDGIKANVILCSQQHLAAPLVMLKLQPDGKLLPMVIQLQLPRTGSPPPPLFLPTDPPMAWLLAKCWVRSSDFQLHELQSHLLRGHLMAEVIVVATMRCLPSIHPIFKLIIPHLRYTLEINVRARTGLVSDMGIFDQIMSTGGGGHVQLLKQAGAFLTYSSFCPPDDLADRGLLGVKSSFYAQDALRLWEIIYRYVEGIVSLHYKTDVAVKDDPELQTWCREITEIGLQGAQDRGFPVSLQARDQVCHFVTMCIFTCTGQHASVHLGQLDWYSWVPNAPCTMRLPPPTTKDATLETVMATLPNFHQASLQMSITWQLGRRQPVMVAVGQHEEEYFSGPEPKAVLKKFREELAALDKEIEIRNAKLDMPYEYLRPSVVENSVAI
- procedure details: 15-LOX-1 activity assay, UV-absorbance change for linoleic acid conversion
- Format: biochemical
- Design: His-tag (N); made in house; host or cells: E. coli BL21(DE3)
- condition details: 10 min pre-incubation at RT, 25 µM linoleic acid, absorbance 234 nm
measure name: IC50 (µM)
Kindly answer with a numeric value in µM, unit omitted.

CCC#CCC#CCOC(=O)CCCC[C@@H]1SCC2NC(=O)NC21 (stereo partly shown): 38.2

For the next question, use this molecule.
-- ask Provide measured IC50 on 15-LOX-1 (Homo sapiens, UniProt P16050) for "CCC#CCC#CCCCOC(=O)CCCC[C@@H]1SC[C@@H]2NC(=O)N[C@@H]21" please.
-- reply 19.8

----------
- experimental system: 12-LOX (Homo sapiens)
- Construct: the endogenous LOXs were captured on an anti‐LOX antibody precoated 96‐well plate; endogenous in cells
- Sequence (P18054 whole entry): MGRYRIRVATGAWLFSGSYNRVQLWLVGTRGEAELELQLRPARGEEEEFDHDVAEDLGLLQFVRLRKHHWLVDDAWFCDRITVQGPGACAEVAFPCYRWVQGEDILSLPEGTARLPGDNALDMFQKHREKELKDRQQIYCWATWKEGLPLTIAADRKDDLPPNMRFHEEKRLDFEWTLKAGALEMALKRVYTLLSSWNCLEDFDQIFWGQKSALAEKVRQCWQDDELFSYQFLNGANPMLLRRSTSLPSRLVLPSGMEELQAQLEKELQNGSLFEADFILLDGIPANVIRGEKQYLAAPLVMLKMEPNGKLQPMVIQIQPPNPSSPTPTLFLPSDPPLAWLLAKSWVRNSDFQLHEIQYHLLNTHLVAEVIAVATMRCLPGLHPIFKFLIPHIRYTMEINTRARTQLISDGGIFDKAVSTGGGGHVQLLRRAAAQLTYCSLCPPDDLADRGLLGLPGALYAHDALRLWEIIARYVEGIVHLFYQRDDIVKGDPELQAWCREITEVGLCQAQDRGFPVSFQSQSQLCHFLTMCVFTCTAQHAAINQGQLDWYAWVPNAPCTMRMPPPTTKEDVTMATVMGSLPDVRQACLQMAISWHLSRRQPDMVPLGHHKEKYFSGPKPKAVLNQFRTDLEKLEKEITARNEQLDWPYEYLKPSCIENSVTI
- procedure details: Sandwich ELISA of Labelox B biotinylation in A549 cell lysate, 12-LOX capture
- condition details: HRP-streptavidin detection, read-out: EC50 of labeling
measure name: EC50

-- ask Complete the entry with EC50 for CCCCCC#CCC#CCOC(=O)CCCC[C@@H]1SC[C@@H]2NC(=O)N[C@@H]21 [Labelox B (3)]
-- reply ~3.5 µM

----------
- experimental system: 5-LOX (Homo sapiens, UniProt P09917)
- Construct: the endogenous LOXs were captured on an anti‐LOX antibody precoated 96‐well plate; endogenous in cells
- Sequence (P09917 1-674): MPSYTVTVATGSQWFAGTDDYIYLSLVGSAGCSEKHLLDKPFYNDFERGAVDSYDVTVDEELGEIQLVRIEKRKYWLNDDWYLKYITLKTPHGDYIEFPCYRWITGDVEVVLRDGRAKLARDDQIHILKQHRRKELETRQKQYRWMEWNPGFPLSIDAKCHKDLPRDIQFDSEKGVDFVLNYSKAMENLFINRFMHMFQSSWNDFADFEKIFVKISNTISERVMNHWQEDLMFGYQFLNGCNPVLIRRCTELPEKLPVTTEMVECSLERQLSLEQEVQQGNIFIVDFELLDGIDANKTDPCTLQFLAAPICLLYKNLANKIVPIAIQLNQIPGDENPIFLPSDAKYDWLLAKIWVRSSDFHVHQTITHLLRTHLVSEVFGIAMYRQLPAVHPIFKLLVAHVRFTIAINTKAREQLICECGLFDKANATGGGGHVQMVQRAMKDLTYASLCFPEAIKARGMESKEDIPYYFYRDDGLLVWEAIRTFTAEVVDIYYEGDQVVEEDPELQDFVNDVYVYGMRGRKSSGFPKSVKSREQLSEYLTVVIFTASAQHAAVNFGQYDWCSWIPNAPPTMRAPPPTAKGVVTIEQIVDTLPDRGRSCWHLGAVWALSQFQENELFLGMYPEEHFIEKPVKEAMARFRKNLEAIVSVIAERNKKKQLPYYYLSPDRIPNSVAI
- procedure details: Sandwich ELISA of Labelox B biotinylation in A549 cell lysate, 5-LOX capture
- condition details: HRP-streptavidin detection, read-out: EC50 of labeling
pEC50: −log10 of the molar value.
measure name: pEC50

-- ask Indicate the recorded pEC50 value for this compound: CCCCCC#CCC#CCOC(=O)CCCC[C@@H]1SC[C@@H]2NC(=O)N[C@@H]21 [Labelox B (3)]
-- reply ~5.46

----------
- experimental system: 15-LOX-1 (Homo sapiens)
- procedure details: Sandwich ELISA of Labelox B biotinylation in A549 cell lysate, 15-LOX-1 capture
- condition details: HRP-streptavidin detection, read-out: EC50 of labeling
pEC50: −log10 of the molar value.
measure name: pEC50

-- ask Report pEC50 on 15-LOX-1 (Homo sapiens) for this entry: CCCCCC#CCC#CCOC(=O)CCCC[C@@H]1SC[C@@H]2NC(=O)N[C@@H]21 [Labelox B (3)]
-- reply ~5.46

----------
- experimental system: 15-LOX-1 (Homo sapiens, UniProt P16050)
- procedure details: ABP-based ELISA assay with A549 cell lysate, 15-LOX-1
- Assay type: biochemical
- Parameters: the endogenous LOXs were captured on an anti‐LOX antibody precoated 96‐well plate; endogenous in cells; host or cells: A549 cell lysate
- condition details: 1 μM Labelox B
measure name: IC50 (µM)
Report the value in µM with no unit label.

-- ask Identify measured IC50 obtained with 15-LOX-1 (Homo sapiens, UniProt P16050) for c1ccc2c(c1)SCc1c-2[nH]c2ccccc12 [PD146176] .
-- reply 17.3

----------
- experimental system: 15-LOX-1 (Homo sapiens)
- procedure details: 15-LOX-1 activity assay, UV-absorbance change for linoleic acid conversion
- Type: biochemical
- Set-up: His-tag (N); made in house; host or cells: E. coli BL21(DE3)
- condition details: 10 min pre-incubation at RT, 25 µM linoleic acid, absorbance 234 nm
Readings of IC50 for the listed molecules

Recorded IC50, per entry:
CCC#CCC#CCCOC(=O)CCCC[C@@H]1SC[C@@H]2NC(=O)N[C@@H]21 [Probe 4]: 11.1 µM
CCC#CCC#CC(C)OC(=O)CCCC[C@@H]1SCC2NC(=O)NC21 (some centres unmarked): > 100 µM
c1ccc2c(c1)SCc1c-2[nH]c2ccccc12: ~4 µM

-- ask Find IC50 for CCCC#CCOC(=O)CCCC[C@@H]1SCC2NC(=O)NC21 (some centres unmarked) on 15-LOX-1 (Homo sapiens) and write it down.
-- reply > 100 µM

-- ask For 15-LOX-1 (Homo sapiens), give IC50 of the listed molecule: CCC#CCC#CCCOC(=O)CCCC[C@@H]1SC[C@@H]2NC(=O)N[C@@H]21 [Probe 8]
-- reply > 100 µM
